Tested on: NCI-H1993
Test: relative viability (nuclei count vs DMSO), 5 days (fraction); higher = more cells survive
Conditions: first compound 0.01581 µM
Measurement kind: relative viability
Output spec: single numeric token, no unit.

For orientation, consider the following solved cases.
Nc1ccn([C@@H]2O[C@H](CO)[C@@H](O)[C@@H]2O)c(=O)n1 [Cytarabine] + CC(=O)c1c(C)c2cnc(Nc3ccc(N4CCNCC4)cn3)nc2n(C2CCCC2)c1=O [Palbociclib] (partner 0.5 µM) : 0.489
Nc1ccn([C@@H]2O[C@H](CO)[C@@H](O)[C@@H]2O)c(=O)n1 [Cytarabine] + CS(=O)(=O)N1CCN(Cc2cc3nc(-c4cccc5[nH]ncc45)nc(N4CCOCC4)c3s2)CC1 [Pictilisib] (partner 1 µM) : 0.815
Nc1ccn([C@@H]2O[C@H](CO)[C@@H](O)[C@@H]2O)c(=O)n1 [Cytarabine] + C[C@@H](Oc1cc(-c2cnn(C3CCNCC3)c2)cnc1N)c1c(Cl)ccc(F)c1Cl [Crizotinib] (partner 1 µM) : 0.785
COc1cc2nccc(Oc3ccc(NC(=O)Nc4cc(C)on4)c(Cl)c3)c2cc1OC [Tivozanib] + CC1(C)CCC(c2ccc(Cl)cc2)=C(CN2CCN(c3ccc(C(=O)NS(=O)(=O)c4ccc(N[C@H](CCN5CCOCC5)CSc5ccccc5)c(S(=O)(=O)C(F)(F)F)c4)cc3)CC2)C1 [Navitoclax] (partner 0.5 µM) : 0.857
COc1cc2nccc(Oc3ccc(NC(=O)Nc4cc(C)on4)c(Cl)c3)c2cc1OC [Tivozanib] + O=C(c1cc(Cc2n[nH]c(=O)c3ccccc23)ccc1F)N1CCN(C(=O)C2CC2)CC1 [Olaparib] (partner 8 µM) : 1.03

Per the records, this molecule ( Nc1ccn([C@@H]2O[C@H](CO)[C@@H](O)[C@@H]2O)c(=O)n1 [Cytarabine] + CC(C)C[C@H](NC(=O)[C@H](Cc1ccccc1)NC(=O)c1cnccn1)B(O)O [Bortezomib] (partner 0.002 µM) ) has relative viability equal to 0.964

Documented relative viability of COc1cc2nccc(Oc3ccc(NC(=O)Nc4cc(C)on4)c(Cl)c3)c2cc1OC [Tivozanib] + CC(C)C[C@H](NC(=O)[C@H](Cc1ccccc1)NC(=O)c1cnccn1)B(O)O [Bortezomib] (partner 0.002 µM) : 1.02

Reference source for all entries: the supplement of paper PMC10307832
